Assayed system: T1, PHD domain of UHRF1 (UHRF1PHD) (structural Zn2+ ions bound; limits are not given, so they follow the usual UHRF1 PHD structural constructs (about 298-366), which include the N-terminal pre-PHD zinc site; the UniProt PHD-type featu)
T1 chain: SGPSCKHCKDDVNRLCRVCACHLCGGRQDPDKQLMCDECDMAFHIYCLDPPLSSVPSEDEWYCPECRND
Protocol text: ITC; 25 °C, MicroCal PEAQ-ITC; protein in the cell titrated with 19 injections of peptide
Condition notes: both partners purified
No end group written: not given here.
Quantity name: Kd (nM)
Field: numeric (nM). Do not append units.

Data request, read-out Kd, for ARTKQTARKSTGGKA-NH2 (Rink amide resin was used for all peptides, so the C-terminus is probably an amide; also called native H3_(1‐15) peptide; source: synthetic peptide (Fmoc solid-phase synthesis)) [native H3R2 peptide (H3_(1‐15) without diazirine and biotin)]
2300
